// reported EC50 for each item listed
# System: TGF-b induced Endothelin-1 production
# PROTOCOL SUMMARY: ET-1 assay: inhibitory effect on TGF-b induced endothelin-1 production
# Format: cell-based
# DETAILS: Homo sapiens, Fibroblast; fibroblasts, stimulant (TGFb, serum, LPA etc), ET-1 in media by ELISA, 4-parameter fit
MEASURED QUANTITY: EC50

[[record]]
line_notation = "Cn1cc(-c2cn(-c3ccccc3)c(=O)c3c2CCCC3)cn1"
target_of_assay = "TGF-b induced Endothelin-1 production"
measured_quantity = "EC50"
observed = "< 50 µM"

[[record]]
line_notation = "CCc1cc(=O)n(-c2ccc(OC(F)(F)F)cc2)cc1-c1cnn(C)c1"
target_of_assay = "TGF-b induced Endothelin-1 production"
measured_quantity = "EC50"
observed = "50 to 200 µM"

[[record]]
line_notation = "Cc1cc(=O)[nH]cc1-c1cccc2c1OC(F)(F)O2"
target_of_assay = "TGF-b induced Endothelin-1 production"
measured_quantity = "EC50"
observed = "< 50 µM"

[[record]]
line_notation = "CC(C)n1ccc2c(-c3cnn(C)c3)cn(-c3ccc(OC(F)(F)F)cc3)c(=O)c21"
target_of_assay = "TGF-b induced Endothelin-1 production"
measured_quantity = "EC50"
observed = "< 50 µM"

[[record]]
line_notation = "Cc1cc(=O)n(-c2ccc(OC(F)(F)F)cc2)cc1-c1cccc2c1OCO2"
target_of_assay = "TGF-b induced Endothelin-1 production"
measured_quantity = "EC50"
observed = "< 50 µM"

[[record]]
line_notation = "CCn1nnc2c(=O)n(-c3ccc(OC(F)(F)F)cc3)cc(-c3cnn(C)c3)c21"
target_of_assay = "TGF-b induced Endothelin-1 production"
measured_quantity = "EC50"
observed = "< 50 µM"

[[record]]
line_notation = "CCOc1ccc(-n2cc(-c3ccc(F)cc3)c(OC)cc2=O)c(C)c1"
target_of_assay = "TGF-b induced Endothelin-1 production"
measured_quantity = "EC50"
observed = "< 50 µM"

[[record]]
line_notation = "Cc1cc(=O)n(-c2cccc(OC(F)(F)F)c2)cc1-c1ccccc1"
target_of_assay = "TGF-b induced Endothelin-1 production"
measured_quantity = "EC50"
observed = "< 50 µM"

[[record]]
line_notation = "Cc1ccc(=O)n(Cc2ccccc2)c1"
target_of_assay = "TGF-b induced Endothelin-1 production"
measured_quantity = "EC50"
observed = "> 200 µM"

